Reference source for all entries: ChEMBL document CHEMBL1135595

TESTED TARGET: Adenosine receptor A1 (Bos taurus, UniProt P28190)
Sequence (P28190 whole entry): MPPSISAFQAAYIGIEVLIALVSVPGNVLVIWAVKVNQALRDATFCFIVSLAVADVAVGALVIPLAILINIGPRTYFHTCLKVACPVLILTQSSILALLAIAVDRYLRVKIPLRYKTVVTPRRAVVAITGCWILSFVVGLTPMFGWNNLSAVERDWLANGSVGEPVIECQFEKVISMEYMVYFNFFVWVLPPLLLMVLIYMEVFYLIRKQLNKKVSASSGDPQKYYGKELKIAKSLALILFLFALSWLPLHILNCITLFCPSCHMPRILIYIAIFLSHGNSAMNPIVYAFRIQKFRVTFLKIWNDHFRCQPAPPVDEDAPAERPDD
Please note: Ki exactly at 20 nM is 0. Only values below 20 nM get 1.

Please review the entries below; each comes with its answer.
* CCC(=O)CNc1nc(-c2ccccc2)nc2nc(C)cn12 | 0
* Cc1cn2c(N)nc(-c3ccccc3)nc2n1 | 0
* O=C(Nc1nc(-c2ccccc2)nc2nc(-c3ccccc3)cn12)C1CCCC1 | 1

QUERY: Quick check: Ki of `CC(C)c1cn2c(NC(=O)C3CCCC3)nc(-c3ccccc3)nc2n1` under 20 nM?
RESULT: 1

QUERY: I wonder whether `CC(=O)CNc1nc(-c2ccccc2)nc2nc(-c3ccccc3)cn12` has Ki below 20 nM. Can you tell?
RESULT: 0

---

Record form. Attribute: Ki. Fill in for each entry.
TESTED TARGET: Adenosine receptor A2a (Bos taurus)
TEST DETAILS: Displacement of [3H]- CGS-21680 from Adenosine A2a receptor in bovine striatal membranes.

Would you please look over these solved cases?
- Cc1cn2c(NC34C[C@H]5C[C@@H](C3)C[C@@H](C4)C5)nc(-c3ccccc3)nc2n1: > 10 µM
- Cc1cn2c(NC3CCCC3)nc(-c3ccccc3)nc2n1: 4.1 µM
- CCC(=O)CNc1nc(-c2ccccc2)nc2nc(C)cn12: > 10 µM
- O=C(Nc1nc(-c2ccccc2)nc2nc(-c3ccccc3)cn12)C1CCCC1: 2.5 µM

Consider the following items and state reported Ki for each.
1. CC(=O)Nc1nc(-c2ccccc2)nc2nc(-c3ccccc3)cn12
2. CC(=O)CNc1nc(-c2ccccc2)nc2nc(C)cn12
3. CC(C)c1cn2c(NC(=O)C3CCCC3)nc(-c3ccccc3)nc2n1
4. CC(=O)Nc1nc(-c2ccccc2)nc2nc(C)cn12

RESULT:
1. 3.2 µM
2. > 10 µM
3. > 10 µM
4. > 10 µM

---

TESTED TARGET: Adenosine receptor A1 (Bos taurus, UniProt P28190)
TEST DETAILS: Displacement of [3H]CHA from Adenosine A1 receptor in bovine cortical membranes.
Type: cell membranes
Provide the recorded Ki for the entries that follow.

- CCc1cn2c(NCC(C)=O)nc(-c3ccccc3)nc2n1: > 10000 nM

Need Ki for each of these compounds.
1. Cc1cn2c(NC(=O)C3CCCC3)nc(-c3ccccc3)nc2n1
2. CC(=O)Nc1nc(-c2ccccc2)nc2nc(C)cn12

RESULT:
["4.4 nM", "855 nM"]
